The origin of these recorded values is patent US20220089593A1.

# testProtocol: Dog liver microsomal stability
# Type: in vitro ADME
# testConditions: dog liver microsomes 0.5 mg protein/mL, compound 1 μM, β-NADPH 1 mM, 37° C.
measuredParameter: log10(microsomal CLint at 1 μM) (log10 of the value in µL/min/mg)

[[record]]
compound = "COC1(C)CCN(c2c(C#N)c(=O)[nH]c3cnc(C(C)OP(=O)([O-])[O-])cc23)CC1.[Na+].[Na+] (centres unmarked) [Compound 204]"
measurednumber = 0.45

[[record]]
compound = "COC1(C)CCN(c2c(C#N)c(=O)[nH]c3ccc(C)nc23)CC1 [Compound 166]"
measurednumber = 0.53

[[record]]
compound = "COC1(C)CCN(c2c(C#N)c(=O)[nH]c3cnc([C@H](C)O)cc23)CC1 (single isomer, unassigned) [Compound B]"
measurednumber = 0.20

[[record]]
compound = "N#Cc1c(N2CCCCCC2)c2ccccc2[nH]c1=O [Compound I-8, reference compound]"
measurednumber = 2.06

[[record]]
compound = "CCc1ccc2[nH]c(=O)c(C#N)c(N3CCC(C)(OC)CC3)c2n1 [Compound 167]"
measurednumber = 1.00

